These data points were gathered from ChEMBL document CHEMBL4765494.

MEASUREMENT TARGET: Cytochrome c (Homo sapiens) (UniProt P99999)
Sequence (P99999 whole entry): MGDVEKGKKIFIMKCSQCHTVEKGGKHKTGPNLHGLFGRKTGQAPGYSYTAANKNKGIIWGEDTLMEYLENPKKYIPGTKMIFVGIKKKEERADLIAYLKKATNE
ASSAY NOTES: Inhibition of cytochrome c (unknown origin) assessed as reduction in cyt c-CL peroxidase activity at 10 uM up to 20 mins in presence of cardiolipin by Amplex red staining based fluorescence assay relative to control
PROTOCOL CONDITIONS: time min <=20
ATTRIBUTE MEASURED: inhibition (%)
One number for each entry, in %.

{"MOLECULE": "O=c1c(-c2ccc(O)cc2)coc2cc(O)ccc12", "MEASUREMENT TARGET": "Cytochrome c (Homo sapiens) (UniProt P99999)", "inhibition [%]": 43}
{"MOLECULE": "O=c1cc(-c2ccccc2)oc2cc(O)c(O)c(O)c12 [BAICALEIN]", "MEASUREMENT TARGET": "Cytochrome c (Homo sapiens) (UniProt P99999)", "inhibition [%]": 71}
{"MOLECULE": "COc1ccc([C@@H]2CC(=O)c3c(O)cc(O)cc3O2)cc1O [HESPERETIN]", "MEASUREMENT TARGET": "Cytochrome c (Homo sapiens) (UniProt P99999)", "inhibition [%]": 57}
{"MOLECULE": "O=C1C[C@@H](c2ccc(O)cc2)Oc2cc(O)cc(O)c21 [NARINGENIN]", "MEASUREMENT TARGET": "Cytochrome c (Homo sapiens) (UniProt P99999)", "inhibition [%]": 46}
{"MOLECULE": "O=c1c(-c2ccc(O)cc2)coc2cc(O)cc(O)c12 [GENISTEIN]", "MEASUREMENT TARGET": "Cytochrome c (Homo sapiens) (UniProt P99999)", "inhibition [%]": 51}
{"MOLECULE": "C[C@@H]1O[C@@H](OC[C@H]2O[C@@H](Oc3c(-c4ccc(O)c(O)c4)oc4cc(O)cc(O)c4c3=O)[C@H](O)[C@@H](O)[C@@H]2O)[C@H](O)[C@H](O)[C@H]1O [RUTIN]", "MEASUREMENT TARGET": "Cytochrome c (Homo sapiens) (UniProt P99999)", "inhibition [%]": 28}
{"MOLECULE": "C[C@@H]1O[C@@H](O[C@H]2[C@H](Oc3cc(O)c4c(c3)O[C@H](c3ccc(O)cc3)CC4=O)O[C@H](CO)[C@@H](O)[C@@H]2O)[C@H](O)[C@H](O)[C@H]1O [NARINGIN]", "MEASUREMENT TARGET": "Cytochrome c (Homo sapiens) (UniProt P99999)", "inhibition [%]": 54}
{"MOLECULE": "O=c1c(O)c(-c2ccc(O)cc2)oc2cc(O)cc(O)c12 [KAEMPFEROL]", "MEASUREMENT TARGET": "Cytochrome c (Homo sapiens) (UniProt P99999)", "inhibition [%]": 70}

Please report inhibition for every entry that follows.
1. COc1ccc(-c2coc3cc(O)cc(O)c3c2=O)cc1 [BIOCHANIN]
2. O=C1C[C@@H](c2ccccc2)Oc2ccccc21
3. Oc1cc(O)c2c(c1)O[C@H](c1ccc(O)c(O)c1)[C@@H](O)C2 [CIANIDANOL]

[32, 47, 90]

Working through the 5 molecules below one at a time, give inhibition for each.
1. O=c1cc(-c2ccc(O)c(O)c2)oc2cc(O)cc(O)c12 [LUTEOLIN]
2. O=c1cc(-c2ccccc2)oc2ccccc12
3. O=C1c2c(O)cc(O)cc2O[C@H](c2ccc(O)c(O)c2)[C@H]1O [(+)-TAXIFOLIN]
4. O=C(O[C@@H]1Cc2c(O)cc(O)cc2O[C@@H]1c1cc(O)c(O)c(O)c1)c1cc(O)c(O)c(O)c1 [EPIGALOCATECHIN GALLATE]
5. O=c1c(O)c(-c2ccc(O)c(O)c2)oc2cc(O)ccc12 [FISETIN]

1: 71; 2: 50; 3: 67; 4: 50; 5: 81

inhibition in this record for O=c1c(O)c(-c2cc(O)c(O)c(O)c2)oc2cc(O)cc(O)c12 [MYRICETIN] : 81
